- measurement_protocol: soluble on expression in E. coli; label from the status in PepcDB or PDB records
quantity: soluble on expression in E. coli

Worked cases, soluble on expression in E. coli given:
{"columns": ["item_sequence", "soluble on expression in E. coli"],
 "data": [
  ["MAWTFDEKSPIYLQIAYRVKLKIASKELSMGQQLLPVREFAQEAGVNPNTVQRAFQELEKEGLVYSARTSGRFVTEDEKLIDQKRHEIAQTLMKNFVTEMTAIGFSSPEIKTIITDYIEQTGKDL", "not soluble"],
  ["VFIEERLEELSTFADSSDLTKIEYGNKKIGIITSGIAYNYAKEVIPDASFLKFGMSYPLPEEKIKEFVENCDKVYVFEELEPIFEQKIKSMGLNVIGKEIFPIIGELSSEIIRNALLNESKEVIDKFDELPQRPPVLCPGCHHRGPFYVLKKLKLHVAGDIGCYTLGGFGPLNAIDTTICMGASIGMAH", "not soluble"],
  ["MIDERDKIILEILEKDARTPFTEIAKKLGISETAVRKRVKALEEKGIIEGYTIKINPKKLGYSLVTITGVDTKPEKLFEVAEKLKEYDFVKELYLSSGDHMIMAVIWAKDGEDLAEIISNKIGKIEGVTKVCPAIILEKLK", "soluble"],
  ["PHDFPHFDKERYARTTRKVIARMNQELASHEQIKGVLMIKEPWSIENGVLTPTLKIKRHVLEQKYHELGHNWPKDELVLWEEDL", "not soluble"]
]}

// moving on: another record for soluble on expression in E. coli
## Input Fill in the blank: the reported soluble on expression in E. coli of SNAMLRYGDTEICIDPSESVLHLLGKKYTMLIISVLGNGSTRQNFNDIRSSIPGISSTILSRRIKDLIDSGLVERRSGQITTYALTEKGMNVRNSLMPLLQYISVLDRNGD is ____.
## Output soluble
